test system: E. coli ATCC 25922; test: MIC, selected panel of Gram-positive and Gram-negative strains (Example 5); assay type: cell-based, Escherichia coli; conditions: Escherichia coli, ATCC25922, read-out: MIC E. coli ATCC 25922

compound	MIC
Cc1c(-c2ccncc2F)ccn2c(=O)c(C(=O)[O-])cc(C3CC3)c12.[K+] [Compound 58K salt]	0.25 µg/mL
Cc1c(-c2cnc3[nH]ccc3c2)ccn2c(=O)c(C(=O)[O-])cc(C3CC3)c12.[K+] [Compound 85K salt]	0.032 µg/mL
Cc1c(-c2ccc3c(cnn3C)c2)ccn2c(=O)c(C(=O)[O-])cc(C3CC3)c12.[K+] [Compound 81K salt]	0.064 µg/mL
Cc1c(-c2ccc3cn[nH]c3c2)ccn2c(=O)c(C(=O)[O-])cc(C3CC3)c12.[K+] [Compound 83K salt]	0.016 µg/mL
Cc1c(-c2ccc3sc(N)nc3c2)ccn2c(=O)c(C(=O)[O-])cc(C3CC3)c12.[K+] [Compound 73K salt]	0.032 µg/mL
Cc1c(-c2ccc3[nH]ncc3c2)c(F)cn2c(=O)c(C(=O)[O-])cc(C3CC3)c12.[K+] [Compound 75K salt]	0.032 µg/mL
Cc1c(C2=CCNCC2)c(F)cn2c(=O)c(C(=O)[O-])cc(C3CC3)c12.[K+] [Compound 62K salt]	0.032 µg/mL

----------
tested on: A. baumannii A473; assay: MIC determination for Acinetobacter strains (Example 3); type: cell-based; conditions: LEV R, CIP R, MRP R, IMP R, AMK R, TET R
assay metric: MIC (µg/mL)

molecule	target entity	assay metric	number
C[C@@H](O)[C@H]1C(=O)N2C(C(=O)O)=C(SCCN=CN)C[C@H]12 [Imipenem, reference compound]	A. baumannii A473	MIC	32
Cc1c(-c2ccc(CN)cc2)ccn2c(=O)c(C(=O)O)cc(C3CC3)c12 [Compound 5]	A. baumannii A473	MIC	8
C[C@@H](O)[C@H]1C(=O)N2C(C(=O)O)=C(S[C@@H]3CN[C@H](C(=O)N(C)C)C3)[C@H](C)[C@H]12 [Meropenem, reference compound]	A. baumannii A473	MIC	16
Cc1c(-c2ccc(N)c(F)c2)ccn2c(=O)c(C(=O)O)cc(C3CC3)c12 [Compound 1]	A. baumannii A473	MIC	4
Cc1c(-c2cc(F)c(N)cc2F)ccn2c(=O)c(C(=O)O)cc(C3CC3)c12 [Compound 2]	A. baumannii A473	MIC	8
Cc1c(-c2cc(Cl)c(N)c(Cl)c2)ccn2c(=O)c(C(=O)O)cc(C3CC3)c12 [Compound 3]	A. baumannii A473	MIC	4
COc1c(N2C[C@@H]3CCCN[C@@H]3C2)c(F)cc2c(=O)c(C(=O)O)cn(C3CC3)c12 [Moxifloxacin, reference compound]	A. baumannii A473	MIC	16
Cc1c(-c2ccc(N)cc2)c(F)cn2c(=O)c(C(=O)O)cc(C3CC3)c12 [Compound 7]	A. baumannii A473	MIC	4

----------
test system: A. baumannii A329; assay: MIC without and with sub-inhibitory polymyxin B (Example 4); type: cell-based, Acinetobacter baumannii; details: Acinetobacter baumannii, A329, A. baumannii A329; without polymyxin B; 2nd experiment; visual reading; read-out: MIC without PB
assay metric: MIC (µg/mL)

molecule	assay metric	readout unit	value relation sign	number
Cc1c(-c2ccc(CN)c(F)c2)ccn2c(=O)c(C(=O)O)cc(C3CC3)c12 [Compound 4]	MIC	µg/mL	=	16
Cc1c(-c2ccc(N)c(F)c2)ccn2c(=O)c(C(=O)O)cc(C3CC3)c12 [Compound 1]	MIC	µg/mL	=	16
C[C@@H](O)[C@H]1C(=O)N2C(C(=O)O)=C(SCCN=CN)C[C@H]12 [Imipenem, reference compound]	MIC	µg/mL	>	128
Cc1c(-c2cc(F)c(N)cc2F)ccn2c(=O)c(C(=O)O)cc(C3CC3)c12 [Compound 2]	MIC	µg/mL	=	8
Cc1c(-c2cc(Cl)c(N)c(Cl)c2)ccn2c(=O)c(C(=O)O)cc(C3CC3)c12 [Compound 3]	MIC	µg/mL	=	16
Cc1c(-c2ccc(CN)cc2)ccn2c(=O)c(C(=O)O)cc(C3CC3)c12 [Compound 5]	MIC	µg/mL	=	8

----------
system: 11 strains of A. baumannii and one strain of Acinetobacter sp.; assay: Preliminary MBC without and with sub-inhibitory polymyxin B, whole panel (Example 4; also strains not listed separately); assay type: cell-based; details: Acinetobacter baumannii, A. baumannii A14, without polymyxin B, 1st experiment, read-out: MBC without PB
# MBC values compiled below

compound	MBC / µg/mL
C[C@H]1COc2c(N3CCN(C)CC3)c(F)cc3c(=O)c(C(=O)O)cn1c23 [Levofloxacin, reference compound]	32
Cc1c(-c2cc(F)c(N)cc2F)ccn2c(=O)c(C(=O)O)cc(C3CC3)c12	16
C[C@@H](O)[C@H]1C(=O)N2C(C(=O)O)=C(SCCN=CN)C[C@H]12 [Imipenem, reference compound]	2
Cc1c(-c2ccc(CN)c(F)c2)ccn2c(=O)c(C(=O)O)cc(C3CC3)c12	16

----------
test system: A. baumannii A473; assay: Preliminary MBC without and with sub-inhibitory polymyxin B (Example 4); assay type: cell-based, Acinetobacter baumannii; conditions: Acinetobacter baumannii, A473, A. baumannii A473, without polymyxin B, 2nd experiment, read-out: MBC without PB
# MBC values compiled below
assay metric: MBC (µg/mL)

molecule	readout unit	number
Cc1c(-c2cc(F)c(N)cc2F)ccn2c(=O)c(C(=O)O)cc(C3CC3)c12 [Compound 2]	µg/mL	4
Cc1c(-c2ccc(N)c(F)c2)ccn2c(=O)c(C(=O)O)cc(C3CC3)c12 [Compound 1]	µg/mL	8
C[C@@H](O)[C@H]1C(=O)N2C(C(=O)O)=C(S[C@@H]3CN[C@H](C(=O)N(C)C)C3)[C@H](C)[C@H]12 [Meropenem, reference compound]	µg/mL	16
Cc1c(-c2ccc(N)cc2)ccn2c(=O)c(C(=O)O)cc(C3CC3)c12 [Compound 8]	µg/mL	4

----------
tested on: A. baumannii A329; experiment: Preliminary MBC without and with sub-inhibitory polymyxin B (Example 4); type: cell-based, Acinetobacter baumannii; conditions: Acinetobacter baumannii, A329, A. baumannii A329, without polymyxin B, 2nd experiment, read-out: MBC without PB

molecule	target entity	MBC
C[C@@H](O)[C@H]1C(=O)N2C(C(=O)O)=C(SCCN=CN)C[C@H]12 [Imipenem, reference compound]	A. baumannii A329	> 128 µg/mL
Cc1c(-c2cc(Cl)c(N)c(Cl)c2)ccn2c(=O)c(C(=O)O)cc(C3CC3)c12	A. baumannii A329	32 µg/mL
C[C@H]1COc2c(N3CCN(C)CC3)c(F)cc3c(=O)c(C(=O)O)cn1c23 [Levofloxacin, reference compound]	A. baumannii A329	32 µg/mL
Cc1c(-c2ccc(N)cc2)ccn2c(=O)c(C(=O)O)cc(C3CC3)c12	A. baumannii A329	8 µg/mL
Cc1c(-c2cc(F)c(N)cc2F)ccn2c(=O)c(C(=O)O)cc(C3CC3)c12	A. baumannii A329	8 µg/mL
Cc1c(-c2ccc(CN)c(F)c2)ccn2c(=O)c(C(=O)O)cc(C3CC3)c12	A. baumannii A329	32 µg/mL

----------
tested on: S. aureus ATCC 25923; experiment: MIC, selected panel of Gram-positive and Gram-negative strains (Example 5); type: cell-based; settings: Staphylococcus aureus, ATCC25923, read-out: MIC S. aureus ATCC 25923
assay metric: MIC (ng/mL)

compound	assay metric	value relation sign	number
Cc1c(-c2cnc3[nH]ccc3c2)ccn2c(=O)c(C(=O)[O-])cc(C3CC3)c12.[K+] [Compound 85K salt]	MIC	≤	4
Cc1c(-c2cn[nH]c2)ccn2c(=O)c(C(=O)[O-])cc(C3CC3)c12.[K+] [Compound 67K salt]	MIC	=	16
Cc1cn2c(=O)c(C(=O)[O-])cc(C3CC3)c2c(C)c1-c1ccc(N)nc1.[K+] [Compound 87K salt]	MIC	=	64
Cc1c(-c2ccc(O)c(F)c2)ccn2c(=O)c(C(=O)[O-])cc(C3CC3)c12.[K+] [Compound 70K salt]	MIC	≤	4
COc1c(-c2ccc3[nH]ncc3c2)ccn2c(=O)c(C(=O)[O-])cc(C3CC3)c12.[K+] [Compound 90K salt]	MIC	=	8
Cc1c(-c2cccc(O)c2)ccn2c(=O)c(C(=O)[O-])cc(C3CC3)c12.[K+] [Compound 56K salt]	MIC	=	8

----------
system: A. baumannii A329; assay: MIC without and with sub-inhibitory polymyxin B (Example 4); assay type: cell-based, Acinetobacter baumannii; settings: Acinetobacter baumannii, A329, A. baumannii A329; without polymyxin B; 1st experiment; read-out: MIC without PB
# MIC values compiled below
assay metric: MIC (µg/mL)

compound	assay metric	number
Cc1c(-c2ccc(N)c(F)c2)c(F)cn2c(=O)c(C(=O)O)cc(C3CC3)c12 [Compound 17]	MIC	8
C[C@@H](O)[C@H]1C(=O)N2C(C(=O)O)=C(SCCN=CN)C[C@H]12 [Imipenem, reference compound]	MIC	128
C[C@H]1COc2c(N3CCN(C)CC3)c(F)cc3c(=O)c(C(=O)O)cn1c23 [Levofloxacin, reference compound]	MIC	32
Cc1c(-c2ccc(N)cc2)ccn2c(=O)c(C(=O)O)cc(C3CC3)c12 [Compound 8]	MIC	16
Cc1c(-c2ccc(N)c(F)c2)ccn2c(=O)c(C(=O)O)cc(C3CC3)c12 [Compound 1]	MIC	16
Cc1c(-c2cc(Cl)c(N)c(Cl)c2)ccn2c(=O)c(C(=O)O)cc(C3CC3)c12 [Compound 3]	MIC	16
Cc1c(-c2ccc(CN)c(F)c2)ccn2c(=O)c(C(=O)O)cc(C3CC3)c12 [Compound 4]	MIC	16
Cc1c(-c2cc(F)c(N)cc2F)ccn2c(=O)c(C(=O)O)cc(C3CC3)c12 [Compound 2]	MIC	8
